Data credit: PubChem BioAssay (NCI)

# TGI per entry
Test system: HOP-92 NSCLC
Assay: NCI tumour cell line growth inhibition, 48 h

compound | observed
CC(=O)OC1OC2C(NC(=O)OC(C)(C)C)C1CC2(OCc1ccccc1)OCc1ccccc1 (stereo unspecified) | 30.3 µM
O=C(N/C(=C\c1ccc(Br)cc1)c1nc2ccccc2s1)c1ccccc1 | > 100 µM
CCOC(=O)C1=C(O)c2ccccc2C(=O)C1=O | > 100 µM

What does the data say about its TGI? Entry: CN(C)c1ncnc2c1ncn2C1C=CC(COS(N)(=O)=O)C1 (stereo unspecified)
> 100 µM

# input compound: COc1ccc(C2SC(N)=Nc3c2c(C)nn3C(=O)c2ccc(Cl)cc2)cc1 (stereo unspecified) ; wanted: its TGI
> 10 µM

What value of TGI has been reported for the following compound? `C=CC[Se]C(=O)Cc1c(C)n(C(=O)c2ccc(Cl)cc2)c2ccc(OC)cc12`
4.09 µM

* * *

Test system: NCI-H23 lung
Experiment: NCI tumour cell line growth inhibition, 48 h
measure-name: TGI

compound | TGI
O=[N+]([O-])c1cc(Cl)cc2c1nc(NCCO)c1ccccc12 | > 80.9 µM
CCCC[P+](c1ccccc1)(c1ccccc1)c1ccccc1 | 32.6 µM
COc1cc2c(cc1OC)C1C(O)C(OC)C=C3CC[N+](C)(C2)C31 (stereo unspecified) | > 100 µM
CC(F)(F)c1cc(F)ccc1-c1sc2cc(O)ccc2c1Oc1ccc(/C=C/C(=O)O)cc1 | 37.4 µM
NC12CC3CC(C1)CC(Cl)(C3)C2 | > 100 µM
COc1cccc2c1cc([N+](=O)[O-])c1c(C(=O)O)cc3c(c12)OCO3 | > 100 µM

Please provide the recorded TGI for `O=C(CCc1ccccc1)On1nnc2ccccc2c1=O` , tested on NCI-H23 lung.
> 100 µM

State its TGI on NCI-H23 lung: `O=c1cc(NCC2CCCCC2)[nH]c(=O)[nH]1`
> 100 µM

Notebook entry, NCI-H23 lung assay: TGI of `CCCCCCNC(=O)Oc1ccc(/C(=C(\C)c2ccccc2)c2ccc(OCCN3CCCCC3)cc2)cc1` = ?
11.6 µM

Missing value: TGI, NCI-H23 lung, entry COc1ccc(C2CCC(Cl)(OC)CC2C=O)cc1 (stereo unspecified) . Fill in?
> 100 µM

Query the reported TGI for NCI-H23 lung; item: `Cc1cnc2[nH]c(-c3ccc(F)cc3)cc(=O)c2c1`
> 100 µM

* * *

Tested on: MOLT-4 leukemia
Assay: NCI tumour cell line growth inhibition, 48 h
Where a SMILES comes first, the peptide text is derived from it. [ ]: non-standard residue; d: D form. The star is where a group is joined. ξ: configuration not given here. ξPhe(4-NO2) = NC(Cc1ccc([N+](=O)[O-])cc1)C(=O)O; Boc = CC(C)(C)OC(=O)*; OBn = c1ccc(CO*)cc1
measure-name: TGI

molecule | TGI
NC(=O)c1csc(CCCCCCc2nc(C(N)=O)cs2)n1 | > 100 µM
Cc1cc(=O)[nH]c(NN2C(Cl)C(=O)C2c2cccc([N+](=O)[O-])c2)n1 (centres undefined) | 44.9 µM

Endpoint output: TGI of `CCCCSCc1nc2nc(Cl)c(Cl)nc2[nH]1` . Value?
45.5 µM

What TGI value was documented for this molecule, `Cc1ccc(C)c(/C(=N\N=C(N)N)C2CC2)c1` ?
> 100 µM

If you can, please state the reported TGI value of CC(C)(C)OC(=O)NC(Cc1ccc([N+](=O)[O-])cc1)C(=O)NCC(=O)OCc1ccccc1 (centres undefined) (Boc-[ξPhe(4-NO2)]-Gly-OBn) .
48.1 µM

Entry CN(C)c1ncnc2c1ncn2C1C=CC(COS(N)(=O)=O)C1 (centres undefined) : reported TGI = ?
> 100 µM

Give its TGI value. Item: `CC[C@@H](C)[C@H]([C@H](CC(=O)N1CCC[C@@H]1[C@@H](OC)[C@H](C)C(=O)N[C@H](Cc1ccccc1)c1nccs1)OC)N(C)C(=O)[C@H](NC(=O)[C@@H](C(C)C)N(C)C)C(C)C`
> 28.4 µM

Please report the recorded TGI for `CS(=O)(=O)c1[nH]nc2[nH]c(=O)[nH]c(=O)c12` .
> 10 µM

Could you tell me which TGI is on file for Cc1ccc(S(=O)(=O)NC(CCC(=O)Nc2ccccc2)C(=O)Nc2ccccc2)cc1 (centres undefined) ?
> 100 µM
